// data source = the nanobody polyreactivity screen of Harvey et al. (2022)

# ASSAY NOTES: yeast display, Sf9 membrane polyspecificity reagent, FACS + sequencing; frameworks hold sequencing errors
READOUT LABEL: polyreactivity (PSR sort gate)

IN: What does the record list as polyreactivity (PSR sort gate) for QVQLVESGGGLVQAGGSLRLSCAASGRTFNQYAMGWYRQAPGKERELVAAISRRTGRTYYADSVKGRFTISRDNAKNTVYLQMNSLKPEDTAVYYCNTLYFVGPDYGYDYWGQGTQVTVSS ?
OUT: high polyreactivity

IN: Value lookup for polyreactivity (PSR sort gate); key = QVQLVESGGGLVQAGGSLRLSCAASGSTFSKYTMGWYRQAPGKERELVAAISVSVGRTYYADSVKGRFTISRDNAKNTVYLQMNSLKPEDTAVYYCAAAYSGLYYWGQGTQVTVSS
OUT: high polyreactivity

---

# ASSAY NOTES: yeast display, Sf9 membrane polyspecificity reagent, FACS + sequencing; frameworks hold sequencing errors
READOUT LABEL: polyreactivity (PSR sort gate)

Record excerpt, results attached:
IN: For the sequence QVQLVESGGGLVQAGGSLRLSCAASGFIIYLYAMGWSRQAPGKERELLAAISRGGGTTYYADSVKGRFTISRDYAQNTVYLQMNSLKPEDTAVYYCAAETEYYSYRFDYWGQGTQVSVSS , what polyreactivity (PSR sort gate) is on record?
OUT: high polyreactivity

IN: # get_value(readout='polyreactivity (PSR sort gate)', item= QVQLVESGGGLVQAGGSLRLSCAASGFTFRRYAMGWYRQAPGKERELVAAITWSGGSTYYADSVKGRFTISRDNAKNTVYLQMNSLKPEDTAVYYCNKAYSPLYFSYNYWGQGTQVTVSS )
OUT: high polyreactivity

IN: Record request: polyreactivity (PSR sort gate) value, item QVQLVESGGGLVQAGGSIRLSCAASGFTFRRNAMGWSRQAPGKERELVAAITSSGASTYYADSVKGRFTISRDNAKNTVYLQMNSLKPEDTAVYYCAARQTYYKYGYWGQGTQVTVSS
OUT: high polyreactivity

IN: Entry under review: QVQLVESGGGLVQGGGSLRLSCAASGSNLQINAMGWYRQAPGKERELVAANDWGGGDTYYADSVKGRFTISRDNAKNTVYVQMISLKPEDTAVYYCAAEGVTWYLWDFYDIYGYWGQGTQVNVSS . Reported polyreactivity (PSR sort gate)?
OUT: high polyreactivity

IN: Record request: polyreactivity (PSR sort gate) value, item QVQLVESGGGLVQAGGSLRLSCAASGRTFRTYAMGWYRQAPGKERELVAAITSRAGSTYYADSVKGRFTISRDNAKNSVYLQMNSLKPEDTAVYYCAKQYYYGWYWGEDYWGQGTQVTVSS
OUT: low polyreactivity

New cases:
IN: Value lookup for polyreactivity (PSR sort gate); key = QVQLVESGGGLVQAGGSLRLSCAASGSTFSHNTMGWYRQAPGKERELVAAISSRGSSTYYADSVKGRFTISRDNAKNTVYLQMNSLKPEDTAVYYCAARYLRGTWAGLGYDYWGQGTQVTVSS
OUT: low polyreactivity

IN: Can you look up the measured polyreactivity (PSR sort gate) of QGQLVESGGGLVQAGGSLRLSCAASGISFSFYAMGWYRQAPGKERELVADITLSGGRTYYADSVKGRFTISRDNAKNTVYLQMNSLKPEDTAVYYCNADTYERVDYWGQGTQVTVSS for me?
OUT: high polyreactivity

IN: Would you mind telling me what polyreactivity (PSR sort gate) value was observed for HVQLVESGGGLVQARGSLRLSCAASGSTFDNYTMGWYRQAPGKERELVAAITRNSGSTYYADSVKGRFTISRDNEKNSVYLHMNSLKPEDTAVYYCAADSYYRRYFGWYEYWGQGTQVTVSS ?
OUT: high polyreactivity

IN: Returns the measured polyreactivity (PSR sort gate) for the input sequence. Input: QVQLVESGGALVQAGGSLRLSCAASGSTFYTYVMGWYRQAPGKQREVVADITWRGGSTYYADSENGRFTISRDNAKNTVYLLMNSLKPEDTPVYYCAALSGLLWYGRMYYWGQGTQVTVSS
OUT: high polyreactivity

IN: Can you share its polyreactivity (PSR sort gate)? I mean this sequence: QVQLVESGGGLVQAGGSLRLSCAASGGTFLPNAMGWYRQAPWKERELVAAITSGGRTNYADSVKGRFTISRDNAKNTVYFQMNSLKPEDTAVYYCAARVRGYPTRPIPYYYWGQGTQVTVSS
OUT: high polyreactivity

IN: Request the reported polyreactivity (PSR sort gate) associated with QVQLVESGGGLVQEGGSLRLSCAASGSTFYWYAMGWYRQAPGKERELVATISNTGRTYYADSVKGRFTISRDNAKNTVYLQMNSLKPEDTAVYDCAAKRSQRWRYDYWGQGTQVTVSS
OUT: high polyreactivity
